Cited source for all entries: the NIST ThermoML archive (doi:10.1016/j.jct.2015.12.027)

This section presents compounds with their documented refractive index values.
assay: refractive index (Na D-line) (dimensionless); conditions: 333.15 K; 81.5 kPa; Liquid; Standard Abbe refractometry
Respond numerically, and do not add a unit to the figure.

ClCCCl; 1.42373
c1ccccc1; 1.47638
O=[N+]([O-])c1ccccc1; 1.53289
Clc1ccccc1; 1.50223

Task item: Need refractive index of `Brc1ccccc1` , thanks.
Reply: 1.53742

###

conditions: 303.15 K; 81.5 kPa; Liquid; Vibrating tube method
Measured parameter: mass density (kg/m3)
// note: answer is a bare numeric in kg/m3

# annotated cases, reported mass density shown
Brc1ccccc1; 1481.97
O=[N+]([O-])c1ccccc1; 1193.15

Task item: Need mass density of `Clc1ccccc1` , thanks.
Reply: 1095.71

Task item: Need mass density of `c1ccccc1` , thanks.
Reply: 868.2

Task item: Need mass density of `ClCCCl` , thanks.
Reply: 1238.27
